- assayed-target: human kidney renin (Homo sapiens, UniProt P00797)
- Construct: Human renin was prepared from human kidney
- Sequence (P00797 67-406): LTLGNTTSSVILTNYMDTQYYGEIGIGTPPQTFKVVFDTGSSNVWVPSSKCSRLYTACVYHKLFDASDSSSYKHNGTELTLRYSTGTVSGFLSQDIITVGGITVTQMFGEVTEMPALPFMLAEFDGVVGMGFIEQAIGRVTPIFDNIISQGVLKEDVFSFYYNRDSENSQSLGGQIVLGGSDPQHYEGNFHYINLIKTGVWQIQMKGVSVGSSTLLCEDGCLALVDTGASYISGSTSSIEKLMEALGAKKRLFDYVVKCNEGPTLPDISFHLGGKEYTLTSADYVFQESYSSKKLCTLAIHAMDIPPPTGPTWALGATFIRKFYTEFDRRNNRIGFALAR
- procedure-details: Radioimmunoassay Screen for Renin Inhibitors (in vitro angiotensin I generation, quantitated by radioimmunoassay)
- protocol-conditions: purified human plasma angiotensinogen, pH 6.0, one hour at 37° C., read-out: Renin Inhibiton IC50
What log10 of IC50 was measured for each of the following?
Short version: log10 scale, IC50, nM.

input: Return log10 of IC50 measured with human kidney renin (Homo sapiens, UniProt P00797) given this compound: "CC(C)C[C@H](NC(=O)[C@@H](CC(=O)NCCOc1ccccn1)Cc1cccc2ccccc12)C(=O)N[C@@H](CC1CCCCC1)[C@@H](O)c1ccccn1"
output: 2.23

input: Give log10 of IC50 (human kidney renin (Homo sapiens, UniProt P00797)) of the following compound: "CC(C)C[C@H](NC(=O)[C@@H](CC(=O)O)Cc1cccc2ccccc12)C(=O)N[C@@H](CC(C)C)[C@@H](O)c1nccs1"
output: 2.74

input: Fill in the recorded log10 of IC50 for this compound, with human kidney renin (Homo sapiens, UniProt P00797) as test system: "CC(C)C[C@H](NC(=O)[C@@H](CC(=O)NCCc1ccccn1)Cc1cccc2ccccc12)C(=O)N[C@@H](CC(C)C)[C@@H](O)c1nccs1"
output: 2.04

input: Lab note: need log10 of IC50 for "CC(C)C[C@H](NC(=O)[C@@H](CC(=O)OC(C)(C)C)Cc1cccs1)C(=O)N[C@@H](CC(C)C)[C@@H](O)c1nccs1" on human kidney renin (Homo sapiens, UniProt P00797), anyone have it?
output: 5.00

input: Record lookup: for human kidney renin (Homo sapiens, UniProt P00797), what log10 of IC50 belongs to "CC(C)C[C@H](NC(=O)[C@H](Cc1ccccc1)OC(=O)N1CCSCC1)C(=O)N[C@@H](CC1CCCCC1)[C@@H](O)c1ccco1" ?
output: 1.67

input: Test system human kidney renin (Homo sapiens, UniProt P00797); read-out log10 of IC50; what value for "COc1cc(C[C@H](CC(=O)N2CCOCC2)C(=O)N[C@@H](Cc2c[nH]cn2)C(=O)N[C@@H](CC(C)C)[C@@H](O)c2nccs2)cc(OC)c1OC" ?
output: 3.45

input: For the record "CC(C)(C)OC(=O)C[C@@H](Cc1cccc2ccccc12)C(=O)N[C@@H](Cc1cnc[nH]1)C(=O)N[C@@H](CC1CCCCC1)[C@@H](O)c1nccs1" , what value of log10 of IC50 is listed for human kidney renin (Homo sapiens, UniProt P00797)?
output: 2.48

input: # query: log10 of IC50 | item "CC(C)C[C@H](NC(=O)[C@H](Cc1ccccc1)OC(=O)N1CCSCC1)C(=O)N[C@@H](CC1CCCCC1)[C@@H](O)c1ccccn1" | system: human kidney renin (Homo sapiens, UniProt P00797)
output: 2.92

input: Reported log10 of IC50 for human kidney renin (Homo sapiens, UniProt P00797), given "CC(C)C[C@H](NC(=O)[C@@H](CC(=O)NCCN1CCCCC1)Cc1cccc2ccccc12)C(=O)N[C@@H](CC(C)C)[C@@H](O)c1nccs1" ?
output: 2.81

input: What value of log10 of IC50 on human kidney renin (Homo sapiens, UniProt P00797) does "CC(C)C[C@H](NC(=O)[C@H](Cc1ccccc1)OC(=O)N1CCOCC1)C(=O)N[C@@H](CC1CCCCC1)[C@@H](O)c1ccco1" have?
output: 2.00

input: Find log10 of IC50 (human kidney renin (Homo sapiens, UniProt P00797)) for the entry "CC(C)C[C@H](NC(=O)[C@@H](CC(=O)NCc1ccccn1)Cc1cccc2ccccc12)C(=O)N[C@@H](CC(C)C)[C@@H](O)c1nccs1"
output: 2.08

input: // map "O=C(C[C@@H](Cc1cccc2ccccc12)C(=O)N[C@@H](Cc1cnc[nH]1)C(=O)N[C@@H](CC1CCCCC1)[C@@H](O)c1nccs1)NCCOc1ccccn1" to recorded log10 of IC50 (system: human kidney renin (Homo sapiens, UniProt P00797))
output: 2.76

input: Reported log10 of IC50 for human kidney renin (Homo sapiens, UniProt P00797), given "CC(C)C[C@H](NC(=O)[C@H](Cc1ccccc1)OC(=O)N1CCNC(=O)C1)C(=O)N[C@@H](CC1CCCCC1)[C@@H](O)c1ccco1" ?
output: -0.72
